- ASSAY_OVERVIEW: calcium flux activation in mu-opioid HEK293 cells, confirmation, counter-screen for TRPC4 activator project, cell-based, HEK293 mu-opioid receptor line (AID 449723);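 further: counter screen cells carry the mu-opioid receptor alone and lack TRPC4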
- CONDITION: Fluo-4 calcium fluorescence, at 10 µM
Activity calls are given as the source filed them.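 How the source made its calls: active means hit in primary screen, with calcium signal over 5 SD above buffer well mean in both duplicates; inactive means the rest.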
Select the correct class. Options are active, inactive and nothing else.

{"MOLECULE": "COc1ccc(C(CCNCc2ccc(N(C)C)cc2)c2ccccc2OC)cc1 (stereo unspecified)", "CATEGORY": "inactive"}
{"MOLECULE": "Cc1onc(-c2c(F)cccc2Cl)c1C(=O)N1CCN(c2ncc(Br)cn2)CC1", "CATEGORY": "inactive"}
{"MOLECULE": "CN(C)CCN(C(=O)c1cccc2ccccc12)c1nc2cc3c(cc2s1)OCO3", "CATEGORY": "inactive"}
{"MOLECULE": "NC(=Nc1ccccc1)Nc1ccccc1", "CATEGORY": "active"}
{"MOLECULE": "Cc1ccc(C)c(-n2cc(CNCCc3cnccn3)c(-c3ccccc3)n2)c1", "CATEGORY": "inactive"}

Pending molecule:
Query :: Per the records of this test, what outcome belongs to COc1cc(OC)cc(C(=O)NC(=S)NNC(=O)[C@H]2C[C@@H]2c2ccccc2)c1 ?
Result :: active

###

- TEST_SYSTEM: Potassium voltage-gated channel subfamily E member 1 (Homo sapiens) + Potassium voltage-gated channel subfamily KQT member 1 (Homo sapiens) (UniProt P15382+P51787)
- Sequence (P51787 whole entry, looked up): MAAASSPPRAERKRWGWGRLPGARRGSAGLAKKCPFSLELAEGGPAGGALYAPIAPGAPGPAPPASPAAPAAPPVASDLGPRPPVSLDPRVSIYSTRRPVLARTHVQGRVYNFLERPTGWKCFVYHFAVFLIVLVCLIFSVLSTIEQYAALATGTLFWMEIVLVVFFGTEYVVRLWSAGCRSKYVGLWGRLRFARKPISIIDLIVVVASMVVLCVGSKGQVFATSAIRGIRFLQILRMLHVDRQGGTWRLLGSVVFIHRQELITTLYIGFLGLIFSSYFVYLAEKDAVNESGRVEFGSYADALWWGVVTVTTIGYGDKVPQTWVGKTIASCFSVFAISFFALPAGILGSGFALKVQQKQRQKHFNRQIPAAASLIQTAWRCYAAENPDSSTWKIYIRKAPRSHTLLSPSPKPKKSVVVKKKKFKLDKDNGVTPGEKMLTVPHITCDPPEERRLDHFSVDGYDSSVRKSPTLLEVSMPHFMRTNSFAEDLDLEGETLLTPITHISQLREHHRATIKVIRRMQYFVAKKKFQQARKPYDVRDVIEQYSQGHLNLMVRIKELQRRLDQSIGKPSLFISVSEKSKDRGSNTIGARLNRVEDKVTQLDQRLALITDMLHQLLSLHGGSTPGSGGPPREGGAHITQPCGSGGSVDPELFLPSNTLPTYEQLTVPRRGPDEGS
- ASSAY_OVERVIEW: KCNQ1/KCNE1 complex potentiators, confirmation, selectivity assay for KCNQ1 potentiator project, thallium flux, CHO-K1 KCNQ1/E1 cells (AID 493186);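 on activation: 0% = assay buffer control and 100% = R-L3 activator control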
- CONDITION: FluxOR thallium flux, at 10 µM; stronger effect = higher value
The source made the active and inactive calls.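 How the source made its calls: active means mean duplicate activation above the buffer control mean plus 5 SD of those controls; inactive means the rest.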
EXPERIMENTAL_READOUT: activation

Sample answers from the record:
{"MOLECULE": "C=CCSc1nc2c(c(=O)[nH]1)C(C(C)C)C(C#N)=C(N)O2 (centres undefined)", "activation": "inactive"}
{"MOLECULE": "C=CCn1c(O)c(N=NC(=S)Nc2ccc(OC)cc2)c2ccccc21", "activation": "inactive"}
{"MOLECULE": "COc1ccc(C(=O)NC(=S)NNC(=O)c2cccc(C)c2)cc1", "activation": "31.9% (active)"}
{"MOLECULE": "O=C(NC1(O)C(=O)c2ccccc2C1=O)c1ccc(C(F)(F)F)cc1", "activation": "inactive"}
{"MOLECULE": "CCCn1c(=O)c(C(=O)NNC(=O)c2ccc(Cl)cc2Cl)c(O)c2ccccc21", "activation": "inactive"}

Query :: Answer with the recorded activation for the molecule listed here: S=C(Nc1ccccc1)Nc1nc2ccccc2n1CCOc1ccc(Cl)cc1
Result :: inactive

Query :: Answer with the recorded activation for the molecule listed here: CCCOc1ccccc1NS(=O)(=O)c1ccc2[nH]c(=O)[nH]c2c1
Result :: inactive

Query :: Answer with the recorded activation for the molecule listed here: Cc1cc(C(=O)CCl)c(C)n1-c1cccc([N+](=O)[O-])c1
Result :: inactive

Query :: Answer with the recorded activation for the molecule listed here: CCOC(=O)C1CCN(S(=O)(=O)c2ccc3c4c2CC(=O)N4CC(C)S3)CC1 (centres undefined)
Result :: inactive

Query :: Answer with the recorded activation for the molecule listed here: O=C(NC(=S)Nc1ccccc1N1CCCC1)c1ccc(-c2cccc([N+](=O)[O-])c2)o1
Result :: inactive

Query :: Answer with the recorded activation for the molecule listed here: O=C(N1CCCCC1)N1CCN(C(=O)N2CCCCC2)CC1
Result :: inactive

Query :: Answer with the recorded activation for the molecule listed here: O=C(CN(CCO)c1ccccc1)Nc1cccc(S(=O)(=O)N2CCCC2)c1
Result :: inactive

Query :: Answer with the recorded activation for the molecule listed here: Cc1onc(-c2ccccc2)c1C(=O)NNC(=S)NC(=O)c1ccc(F)cc1
Result :: inactive

Query :: Answer with the recorded activation for the molecule listed here: CCOC(=O)c1c(C)cccc1OCC(N)=O
Result :: inactive

Query :: Answer with the recorded activation for the molecule listed here: O=C(NNC(=O)c1cc(-c2ccccc2)nn1-c1ccccc1)c1ccccc1
Result :: inactive

Query :: Answer with the recorded activation for the molecule listed here: CCN(CC)CCSc1nc2ccccc2c(=S)n1-c1ccccc1
Result :: inactive

Query :: Answer with the recorded activation for the molecule listed here: S=c1[nH]cnc2scc(-c3ccc(Br)cc3)c12
Result :: inactive

Query :: Answer with the recorded activation for the molecule listed here: O=S(=O)(Nc1cccnc1)c1ccc(Cl)cc1
Result :: inactive

Query :: Answer with the recorded activation for the molecule listed here: Cc1c(C(=O)Nc2ccc(F)cc2)oc2ccc(S(=O)(=O)N3CC(C)CC(C)C3)cc12 (centres undefined)
Result :: inactive

Query :: Answer with the recorded activation for the molecule listed here: COc1nccnc1NS(=O)(=O)c1ccc(NC(=S)NC(=O)c2ccccc2F)cc1
Result :: inactive

Query :: Answer with the recorded activation for the molecule listed here: O=C(CSc1nnc(NC(=O)C2CCC2)s1)Nc1ccc(N2CCOCC2)cc1
Result :: inactive

Query :: Answer with the recorded activation for the molecule listed here: CC(C)(C)c1ccc(-n2nc(C#N)c(Cl)cc2=O)cc1
Result :: inactive

Query :: Answer with the recorded activation for the molecule listed here: O=C(NC(=S)N1CCCCCC1)c1ccccc1Cl
Result :: inactive

Query :: Answer with the recorded activation for the molecule listed here: C#CCNc1cc(-c2ccccc2)nc2ncnn12
Result :: inactive
